Just for reference, patent US20240043427A1 is where these values come from.

# System under test: CD73 (Homo sapiens (Human), UniProt P21589)
# Sequence (P21589 27-574): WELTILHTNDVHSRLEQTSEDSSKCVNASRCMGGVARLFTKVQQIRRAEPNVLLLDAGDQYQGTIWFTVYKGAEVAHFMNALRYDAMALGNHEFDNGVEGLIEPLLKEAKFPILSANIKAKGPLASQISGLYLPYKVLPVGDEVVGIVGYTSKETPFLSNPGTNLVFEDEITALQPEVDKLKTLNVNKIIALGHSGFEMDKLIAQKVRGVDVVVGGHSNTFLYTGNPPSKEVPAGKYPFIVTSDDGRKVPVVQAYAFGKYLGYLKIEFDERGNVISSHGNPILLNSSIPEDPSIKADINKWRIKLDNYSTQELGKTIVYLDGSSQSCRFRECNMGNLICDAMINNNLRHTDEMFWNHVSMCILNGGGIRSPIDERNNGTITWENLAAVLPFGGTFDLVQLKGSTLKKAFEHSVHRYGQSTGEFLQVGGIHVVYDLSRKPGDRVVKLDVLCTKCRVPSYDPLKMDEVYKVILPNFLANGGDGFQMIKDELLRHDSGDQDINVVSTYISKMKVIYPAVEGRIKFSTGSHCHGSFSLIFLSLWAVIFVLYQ
# Assay type: biochemical
# Recorded conditions: 1 mM NaH2PO4 in enzyme buffer, CD73 0.3 nM, AMP 15 uM
pIC50: −log10 of the molar value.
criterion met means recorded pIC50 is 8 or above; criterion not met means it is below 8.

CC1(C)C(=O)N(CC(F)(F)F)c2cc([C@H]3C[C@@H]3c3cc(-c4c[nH]c(=O)[nH]c4=O)nn4ccnc34)ncc21 [Example 700] | criterion met
O=c1[nH]cc(-c2cc(N3CC(C(F)F)C4(CC4)C3)c3nccn3n2)c(=O)[nH]1 (stereo not shown) [Example 170] | criterion not met
O=c1[nH]cc(-c2cc(N3C[C@@H](Oc4ccc(OC(F)(F)F)cn4)C(F)(F)C3)c3nccn3n2)c(=O)[nH]1 [Example 334] | criterion not met
NC(=O)c1cccc([C@H]2C[C@@H]2c2cc(-c3c[nH]c(=O)[nH]c3=O)nn3ccnc23)c1 (racemic) [Example 284] | criterion met

// query Decide: is the reported value of pIC50 for O=c1[nH]cc(-c2cc(N3CC(F)(F)C4(CC4)C3)n3ncnc3n2)c(=O)[nH]1 [Example 357] equal to or greater than 8?
// result criterion not met

// query Decide: is the reported value of pIC50 for O=C(c1ccc([C@H]2C[C@@H]2c2cc(-c3c[nH]c(=O)[nH]c3=O)nn3ccnc23)cc1)N1CC(F)(F)C1 (racemic) [Example 292] equal to or greater than 8?
// result criterion met

// query Decide: is the reported value of pIC50 for O=c1[nH]cc(-c2cc(NCCc3ccccc3F)c3nccn3n2)c(=O)[nH]1 [Example 493] equal to or greater than 8?
// result criterion not met

* * *

# System under test: CD73 (Homo sapiens (Human), UniProt P21589)
# Measurement protocol: CD73 Biochemical IC50 Assay
# Recorded conditions: CD73 0.3 nM, AMP 15 uM, 25 mM Tris pH 7.4, 5 mM MgCl2
# Procedure: CD73 Biochemical IC50 Assay Compound serial dilutions were pre-spotted into Thermo Nunc assay plate. 50 μL CD73 enzyme buffer (CD73 purchased from R&D system=0.6 nM, 25 mM Tris, pH 7.4, 5 mM MgCl2) was added into the assay plate and incubated for 15 mins. […] The samples were run using Rapid fire.
Could you please mark satisfied for values of IC50 below 30 nM and not satisfied for values at or above it?

Would you please look over these solved cases?
O=c1[nH]cc(-c2cc(C3CC3)c3nc(-c4ccccc4)cn3n2)c(=O)[nH]1 [Example 2] | not satisfied
O=c1[nH]cc(-c2cc([C@H]3C[C@@H]3c3ccncc3)c3nccn3n2)c(=O)[nH]1 (racemic) [Example 54] | satisfied
O=c1[nH]cc(-c2cc(CS(=O)(=O)c3ccccc3)c3nccn3n2)c(=O)[nH]1 [Example 20] | not satisfied
O=c1[nH]cc(-c2cc(N3C[C@H](F)[C@@H](F)C3)c3nccn3n2)c(=O)[nH]1 (racemic) [Example 73] | not satisfied
O=c1[nH]cc(-c2cc([C@H]3C[C@@H]3c3cccc(OC(F)(F)F)c3)c3nccn3n2)c(=O)[nH]1 (racemic) [Example 47] | not satisfied

// query Determine if O=c1[nH]cc(-c2cc([C@H]3C[C@@H]3c3ccc(Cl)c(F)c3)c3nccn3n2)c(=O)[nH]1 (racemic) [Example 98] shows IC50 strictly lower than 30 nM.
// result satisfied

// query Determine if O=c1[nH]cc(-c2cc(C3CC3)c3nc(C4CC4)cn3n2)c(=O)[nH]1 [Example 75] shows IC50 strictly lower than 30 nM.
// result not satisfied

* * *

# System under test: UniProt:P21589
# Type: biochemical
# Recorded conditions: 1 mM NaH2PO4 in enzyme buffer, CD73 0.3 nM, AMP 15 uM
Outcome measure: pIC50
Give bare numbers, as −log10 of the molar value.

Some solved cases for reference:
COc1cc([C@H]2C[C@@H]2c2cc(-c3c[nH]c(=O)[nH]c3=O)nn3ccnc23)ccc1C#N | 9.01
O=c1[nH]cc(-c2cc(N3CC4CCCC43)c3nccn3n2)c(=O)[nH]1 (stereo not shown) | 8.19
N#CC1(F)CCN(c2cc(-c3c[nH]c(=O)[nH]c3=O)nn3ccnc23)C1 (stereo not shown) | 7.20

With those in mind, consider the next compound.
// query // pIC50 lookup, key: `O=c1[nH]cc(-c2cc([C@H]3C[C@@H]3c3ccc4cnn(CC(F)(F)F)c4c3)n3nccc3n2)c(=O)[nH]1`
// result 9.28

* * *

# System under test: CD73 (Homo sapiens (Human))
# Measurement protocol: CD73 Biochemical IC50 Assay
# Recorded conditions: CD73 0.3 nM, AMP 15 uM, 25 mM Tris pH 7.4, 5 mM MgCl2
For each record, write down the corresponding IC50.
One number for each entry, in nM.

Some solved cases for reference:
O=c1[nH]cc(-c2cc(C3CC3)c3ncc(F)n3n2)c(=O)[nH]1 [Example 69] | 55.4
CC(C)c1cc(-c2c[nH]c(=O)[nH]c2=O)nn2cc(C(F)(F)F)nc12 [Example 15] | 2350

With those in mind, consider the next molecule.
// query // IC50 lookup, key: O=c1[nH]cc(-c2cc([C@H]3C[C@@H]3c3cc(F)cc(F)c3)c3nccn3n2)c(=O)[nH]1 (racemic) [Example 60]
// result 12.6

* * *

# System under test: CD73 (Homo sapiens (Human), UniProt P21589)
# Measurement protocol: MDA-MB-231 Cell Based CD73 Activity Assay (DMEM)
# Recorded conditions: MDA-MB-231-GFP cells, DMEM medium with 10% human plasma, 200 uM AMP
For each record, write down the corresponding pEC50.
Give bare numbers, as −log10 of the molar value.

Some solved cases for reference:
O=c1[nH]cc(-c2cc([C@H]3C[C@@H]3c3ccc(OCC(F)F)cc3)c3nccn3n2)c(=O)[nH]1 (racemic) | 7.76
CC(F)(F)CN1C(=O)C2(CC2)c2ccc([C@H]3C[C@@H]3c3cc(-c4c[nH]c(=O)[nH]c4=O)nn4ccnc34)cc21 (racemic) | 9.96
O=c1[nH]cc(-c2cc(N3CC(F)(C(F)(F)F)C3)c3nccn3n2)c(=O)[nH]1 | 7.65
O=c1[nH]cc(-c2cc([C@H]3C[C@@H]3c3ccc4c(cnn4CC(F)(F)F)c3)c3nccn3n2)c(=O)[nH]1 | 8.92
O=c1[nH]cc(-c2cc(N3CC(F)(F)C(F)(F)C3)n3nccc3n2)c(=O)[nH]1 | 7.09

Each compound below has a reported value. Please supply its pEC50.
1. CC1(C)C(=O)N(CC(F)(F)F)c2cc([C@H]3C[C@@H]3c3cc(-c4c[nH]c(=O)[nH]c4=O)nn4ccnc34)cnc21 [Example 698]
2. COC[C@H](C)NC(=O)O[C@H]1CN(c2cc(-c3c[nH]c(=O)[nH]c3=O)nn3ccnc23)CC1(F)F
3. C[C@@H]1CN(c2cc(-c3c[nH]c(=O)[nH]c3=O)nn3ccnc23)C[C@H]1C(F)(F)F
4. O=c1[nH]cc(-c2cc([C@H]3C[C@@H]3c3ccc4cnn(CC(F)(F)F)c4c3)c3ncnn3n2)c(=O)[nH]1
5. O=c1[nH]cc(-c2cc(N3CC(F)(F)C4(CC4)C3)c3nccn3n2)c(=O)[nH]1

// result
1. 9.09
2. 9.55
3. 6.17
4. 9.89
5. 8.18

Each compound below has a reported value. Please supply its pEC50.
1. O=c1[nH]cc(-c2cc(N3CC[C@@H](Oc4ccc(F)cc4)C3)c3nccn3n2)c(=O)[nH]1
2. O=c1[nH]cc(-c2cc([C@H]3C[C@@H]3c3ccc4cnn(CC(F)(F)F)c4c3)c3ncc(F)n3n2)c(=O)[nH]1
3. CC1(C)C(=O)N(CC(F)(F)F)c2cc([C@H]3C[C@@H]3c3cc(-c4c[nH]c(=O)[nH]c4=O)nn4ccnc34)ncc21
4. O=c1[nH]cc(-c2cc(NCCc3ccccc3)c3nccn3n2)c(=O)[nH]1

// result
[8.42, 10.15, 9.27, 7.09]

* * *

For each record, write down the corresponding log10 of IC50.
# System under test: CD73 (Homo sapiens (Human))
# Assay type: biochemical
# Recorded conditions: 1 mM NaH2PO4 in enzyme buffer, CD73 0.3 nM, AMP 15 uM
A value of 2 here means IC50 of 100 in nM, since values are log10.

CC(C)CNc1cc(-c2c[nH]c(=O)[nH]c2=O)nn2ccnc12 | 2.00

Each compound below has a reported value. Please supply its log10 of IC50.
1. CNC(=O)c1ccc(C2CCN(c3cc(-c4c[nH]c(=O)[nH]c4=O)nn4ccnc34)C2)cc1 (stereo not drawn)
2. O=c1[nH]cc(-c2cc([C@H]3C[C@@H]3c3ccc(C(F)F)cc3)c3ncc(F)n3n2)c(=O)[nH]1
3. O=c1[nH]cc(-c2cc(N3CCC(c4ccc(F)cc4)C3)c3nccn3n2)c(=O)[nH]1 (stereo in doubt)
4. N#Cc1ccnc(O[C@H]2CN(c3cc(-c4c[nH]c(=O)[nH]c4=O)nn4ccnc34)CC2(F)F)c1

// result
[0.05, 0.09, 0.68, 0.15]

Each compound below has a reported value. Please supply its log10 of IC50.
1. O=c1[nH]cc(-c2cc([C@H]3C[C@@H]3c3ccc4onc(C(F)(F)F)c4c3)c3nccn3n2)c(=O)[nH]1 (racemic)
2. O=c1[nH]cc(-c2cc([C@H]3C[C@@H]3c3ccc(Cl)cn3)c3nccn3n2)c(=O)[nH]1 (racemic) [Example 576]

// result
1. 0.25
2. 0.31

Each compound below has a reported value. Please supply its log10 of IC50.
1. O=c1[nH]cc(-c2cc(N3CC4C(C3)C4(F)F)c3nccn3n2)c(=O)[nH]1 (stereo not drawn)
2. O=c1[nH]cc(-c2cc([C@H]3C[C@@H]3c3cc(C(F)(F)F)c4cccnc4c3)c3nccn3n2)c(=O)[nH]1
3. O=c1[nH]cc(-c2cc(N3CCC(c4ccc(C(F)(F)F)cc4)C3)c3nccn3n2)c(=O)[nH]1 (stereo not drawn)
4. CC(C)n1ncc2ccc([C@H]3C[C@@H]3c3cc(-c4c[nH]c(=O)[nH]c4=O)nn4ccnc34)cc21 [Example 120]
5. O=c1[nH]cc(-c2cc([C@H]3C[C@@H]3c3ccc(OC(F)F)nc3)c3ncc(F)n3n2)c(=O)[nH]1 [Example 122]

// result
[1.08, 0.77, 1.18, -0.07, 0.38]

Each compound below has a reported value. Please supply its log10 of IC50.
1. O=c1[nH]cc(-c2cc(N3CC(C(F)(F)F)C3)c3nccn3n2)c(=O)[nH]1
2. O=c1[nH]cc(-c2cc(-c3cnn(C(F)F)c3)c3nccn3n2)c(=O)[nH]1

// result
[0.93, 1.69]
